meta.source: the supplement of paper PMC11061612

tested on: OCI-AML3 (Acute Myeloid Leukemia); experiment: Bliss excess, mean over the matrix (fraction); higher = more synergy;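 further: after 72 h of two-drug dosing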
parameter: Bliss excess

C[C@@H](c1ccc2nccn2c1)n1nnc2ncc(-c3cnn(C)c3)nc21 [Savolitinib] + CC1(C)CCC(CN2CCN(c3ccc(C(=O)NS(=O)(=O)c4ccc(NCC5CCOCC5)c([N+](=O)[O-])c4)c(Oc4cnc5[nH]ccc5c4)c3)CC2)=C(c2ccc(Cl)cc2)C1 [Venetoclax] (first compound max 1 µM, 7x7, partner max 1 µM) ... -0.0358
C[C@@H](Oc1cc(-c2cnn(C3CCNCC3)c2)cnc1N)c1c(Cl)ccc(F)c1Cl [Crizotinib] + Cn1cnc2c(F)c(Nc3ccc(Br)cc3Cl)c(C(=O)NOCCO)cc21 [Selumetinib] (first compound max 10 µM, 7x7, partner max 10 µM) ... -0.0401

Lab note: next molecule to report on.
input: Return reported Bliss excess; argument: CN(CCO)CC[C@H](CSc1ccccc1)Nc1ccc(S(=O)(=O)NC(=O)c2ccc(N3CCC([C@@H](O)c4ccccc4-c4ccc(Cl)cc4)CC3)cc2)cc1S(=O)(=O)C(F)(F)F [AZD4320] + CS(=O)(=O)CCNCc1ccc(-c2ccc3ncnc(Nc4ccc(OCc5cccc(F)c5)c(Cl)c4)c3c2)o1 [Lapatinib] (first compound max 1 µM, 7x7, partner max 10 µM)
output: 0.0258
